MEASUREMENT_NOTES: Drug metabolism in rat liver microsomes at 5 uM after 15 mins
Format: ADME, Microsome
MEASUREMENT_SETUP: read-out: Drug metabolism
EXPERIMENTAL_ENDPOINT: metabolised at 0.25 h, 5 µM (%)

>>> df
                               smiles_record        experimental_endpoint  value_operator  value
 0  COc1ccc2c(c1)OCC(=O)N(C)CCOCCN(C)S(=O)(=O)NC(=O)c1ccc3c(C4CCCCC4)c-2n(C)c3c1  metabolised at 0.25 h, 5 µM               =     52
 1  O=C1Cn2c(-c3ccoc3)c(C3CCCCC3)c3ccc(cc32)C(=O)NCCCCCCN1  metabolised at 0.25 h, 5 µM               >     95
 2  CN1CCCCCNC(=O)Cn2c(-c3ccoc3)c(C3CCCCC3)c3ccc(cc32)C(=O)NS1(=O)=O  metabolised at 0.25 h, 5 µM               =     63
 3  CN1CCCCN(C)S(=O)(=O)NC(=O)c2ccc3c(C4CCCCC4)c(n(C)c3c2)-c2ccccc2OCC1=O  metabolised at 0.25 h, 5 µM               =     60
 4  CC(C)n1c2c(C3CCCCC3)c3ccc(cc31)C(=O)NS(=O)(=O)N(C)CCOCCN(C)C(=O)COc1ccccc1-2  metabolised at 0.25 h, 5 µM               =     35
 5  CN1CCCCCNC(=O)COc2cc(F)ccc2-c2c(C3CCCCC3)c3ccc(cc3n2C)C(=O)NS1(=O)=O  metabolised at 0.25 h, 5 µM               =     58
 6  CN1CCCCCNC(=O)COc2ccc(F)cc2-c2c(C3CCCCC3)c3ccc(cc3n2C)C(=O)NS1(=O)=O  metabolised at 0.25 h, 5 µM               =     56
 7  COc1ccc2c(c1)OCC(=O)N(C)CCCCN(C)S(=O)(=O)NC(=O)c1ccc3c(C4CCCCC4)c-2n(C)c3c1  metabolised at 0.25 h, 5 µM               =     64
 8  CN1CCOCCN(C)S(=O)(=O)NC(=O)c2ccc3c(C4CCCCC4)c(n(C4CCCC4)c3c2)-c2ccccc2OCC1=O  metabolised at 0.25 h, 5 µM               =     40
 9  CN1CCN2CCN(CC2)C(=O)COc2ccccc2-c2c(C3CCCCC3)c3ccc(cc3n2C)C(=O)NS1(=O)=O  metabolised at 0.25 h, 5 µM               =     35
10  CN1CCOCCN(C)S(=O)(=O)NC(=O)c2ccc3c(C4CCCCC4)c(n(C)c3c2)-c2ccccc2OCC1=O  metabolised at 0.25 h, 5 µM               =     50
11  O=C1Cn2c(-c3ccoc3)c(C3CCCCC3)c3ccc(cc32)C(=O)NCC/C=C/CCN1  metabolised at 0.25 h, 5 µM               >     95
12  CN1CCCCCNC(=O)COc2ccccc2-c2c(C3CCCCC3)c3ccc(cc3n2C)C(=O)NS1(=O)=O  metabolised at 0.25 h, 5 µM               =     44
13  O=C1Cn2c(-c3ccoc3)c(C3CCCCC3)c3ccc(cc32)C(=O)NCC/C=C/CCCN1  metabolised at 0.25 h, 5 µM               >     95
